Settings: in ethylene glycol, 328.15 K
result type: solubility (mole fraction)
Give bare numbers.

## Input Using the record for O=C(O)Cc1ccccc1[N+](=O)[O-] , report its solubility (mole fraction).
## Output 0.0664

###

Details: in water, 323.15 K
result type: solubility (mole fraction)
One number for each entry.

## Input Using the record for O=C(O)Cc1ccccc1[N+](=O)[O-] , report its solubility (mole fraction).
## Output 0.000554

###

Conditions: in isopropanol, 298.15 K
result type: solubility (mole fraction)
Answers are plain numbers.

## Input Using the record for O=C(O)Cc1ccccc1[N+](=O)[O-] , report its solubility (mole fraction).
## Output 0.0253

###

Details: in DMF, 318.15 K
result type: solubility (mole fraction)
One number for each entry.

## Input Using the record for O=C(O)Cc1ccccc1[N+](=O)[O-] , report its solubility (mole fraction).
## Output 0.371

###

Settings: in methanol, 283.15 K
result type: solubility (mole fraction)
One number for each entry.

## Input Using the record for O=C(O)Cc1ccccc1[N+](=O)[O-] , report its solubility (mole fraction).
## Output 0.0409

###

Details: in n-butanol, 328.15 K
result type: solubility (mole fraction)
Give bare numbers.

## Input Using the record for O=C(O)Cc1ccccc1[N+](=O)[O-] , report its solubility (mole fraction).
## Output 0.0742

###

Settings: in cyclohexane, 308.15 K
result type: solubility (mole fraction)
Give bare numbers.

## Input Using the record for O=C(O)Cc1ccccc1[N+](=O)[O-] , report its solubility (mole fraction).
## Output 3.79e-05

###

Conditions: in n-propanol, 323.15 K
result type: solubility (mole fraction)

## Input Using the record for O=C(O)Cc1ccccc1[N+](=O)[O-] , report its solubility (mole fraction).
## Output 0.0767

###

Conditions: in 1,4-dioxane, 298.15 K
result type: solubility (mole fraction)
Give bare numbers.

## Input Using the record for O=C(O)Cc1ccccc1[N+](=O)[O-] , report its solubility (mole fraction).
## Output 0.0618

###

Conditions: in methanol, 313.15 K
result type: solubility (mole fraction)

## Input Using the record for O=C(O)Cc1ccccc1[N+](=O)[O-] , report its solubility (mole fraction).
## Output 0.0887

###

Conditions: in methanol, 323.15 K
result type: solubility (mole fraction)
Give bare numbers.

## Input Using the record for O=C(O)Cc1ccccc1[N+](=O)[O-] , report its solubility (mole fraction).
## Output 0.117

###

Details: in ethylene glycol, 313.15 K
result type: solubility (mole fraction)

## Input Using the record for O=C(O)Cc1ccccc1[N+](=O)[O-] , report its solubility (mole fraction).
## Output 0.0399

###

Conditions: in ethyl acetate, 303.15 K
result type: solubility (mole fraction)

## Input Using the record for O=C(O)Cc1ccccc1[N+](=O)[O-] , report its solubility (mole fraction).
## Output 0.055

###

Details: in n-propanol, 303.15 K
result type: solubility (mole fraction)

## Input Using the record for O=C(O)Cc1ccccc1[N+](=O)[O-] , report its solubility (mole fraction).
## Output 0.037

###

Settings: in n-butanol, 293.15 K
result type: solubility (mole fraction)
Answers are plain numbers.

## Input Using the record for O=C(O)Cc1ccccc1[N+](=O)[O-] , report its solubility (mole fraction).
## Output 0.0233

###

Conditions: in ethylene glycol, 293.15 K
result type: solubility (mole fraction)
Answers are plain numbers.

## Input Using the record for O=C(O)Cc1ccccc1[N+](=O)[O-] , report its solubility (mole fraction).
## Output 0.0208

###

Settings: in ethanol, 303.15 K
result type: solubility (mole fraction)
Answers are plain numbers.

## Input Using the record for O=C(O)Cc1ccccc1[N+](=O)[O-] , report its solubility (mole fraction).
## Output 0.0516

###

Conditions: in ethanol, 288.15 K
result type: solubility (mole fraction)

## Input Using the record for O=C(O)Cc1ccccc1[N+](=O)[O-] , report its solubility (mole fraction).
## Output 0.0317

###

Conditions: in DMF, 298.15 K
result type: solubility (mole fraction)
One number for each entry.

## Input Using the record for O=C(O)Cc1ccccc1[N+](=O)[O-] , report its solubility (mole fraction).
## Output 0.249

###

Settings: in ethyl acetate, 283.15 K
result type: solubility (mole fraction)
Give bare numbers.

## Input Using the record for O=C(O)Cc1ccccc1[N+](=O)[O-] , report its solubility (mole fraction).
## Output 0.0285

###

Conditions: in isobutanol, 328.15 K
result type: solubility (mole fraction)
Numbers only.

## Input Using the record for O=C(O)Cc1ccccc1[N+](=O)[O-] , report its solubility (mole fraction).
## Output 0.0573

###

Conditions: in methanol, 298.15 K
result type: solubility (mole fraction)
Answers are plain numbers.

## Input Using the record for O=C(O)Cc1ccccc1[N+](=O)[O-] , report its solubility (mole fraction).
## Output 0.0584

###

Details: in ethyl acetate, 323.15 K
result type: solubility (mole fraction)
Numbers only.

## Input Using the record for O=C(O)Cc1ccccc1[N+](=O)[O-] , report its solubility (mole fraction).
## Output 0.0979

###

Details: in n-butanol, 283.15 K
result type: solubility (mole fraction)

## Input Using the record for O=C(O)Cc1ccccc1[N+](=O)[O-] , report its solubility (mole fraction).
## Output 0.0168

###

Conditions: in water, 283.15 K
result type: solubility (mole fraction)
One number for each entry.

## Input Using the record for O=C(O)Cc1ccccc1[N+](=O)[O-] , report its solubility (mole fraction).
## Output 5.33e-05

###

Conditions: in ethylene glycol, 308.15 K
result type: solubility (mole fraction)

## Input Using the record for O=C(O)Cc1ccccc1[N+](=O)[O-] , report its solubility (mole fraction).
## Output 0.0337

###

Conditions: in n-propanol, 318.15 K
result type: solubility (mole fraction)
Give bare numbers.

## Input Using the record for O=C(O)Cc1ccccc1[N+](=O)[O-] , report its solubility (mole fraction).
## Output 0.0637

###

Settings: in acetonitrile, 283.15 K
result type: solubility (mole fraction)

## Input Using the record for O=C(O)Cc1ccccc1[N+](=O)[O-] , report its solubility (mole fraction).
## Output 0.0143

###

Details: in ethylene glycol, 303.15 K
result type: solubility (mole fraction)
Numbers only.

## Input Using the record for O=C(O)Cc1ccccc1[N+](=O)[O-] , report its solubility (mole fraction).
## Output 0.0287

###

Conditions: in ethylene glycol, 283.15 K
result type: solubility (mole fraction)

## Input Using the record for O=C(O)Cc1ccccc1[N+](=O)[O-] , report its solubility (mole fraction).
## Output 0.0148

###

Settings: in ethyl acetate, 308.15 K
result type: solubility (mole fraction)
Give bare numbers.

## Input Using the record for O=C(O)Cc1ccccc1[N+](=O)[O-] , report its solubility (mole fraction).
## Output 0.0651

###

Settings: in ethyl acetate, 328.15 K
result type: solubility (mole fraction)
Answers are plain numbers.

## Input Using the record for O=C(O)Cc1ccccc1[N+](=O)[O-] , report its solubility (mole fraction).
## Output 0.11

###

Conditions: in methanol, 288.15 K
result type: solubility (mole fraction)

## Input Using the record for O=C(O)Cc1ccccc1[N+](=O)[O-] , report its solubility (mole fraction).
## Output 0.0455

###

Settings: in 1,4-dioxane, 313.15 K
result type: solubility (mole fraction)
Answers are plain numbers.

## Input Using the record for O=C(O)Cc1ccccc1[N+](=O)[O-] , report its solubility (mole fraction).
## Output 0.1

###

Conditions: in methanol, 303.15 K
result type: solubility (mole fraction)
Numbers only.

## Input Using the record for O=C(O)Cc1ccccc1[N+](=O)[O-] , report its solubility (mole fraction).
## Output 0.0673

###

Settings: in n-propanol, 283.15 K
result type: solubility (mole fraction)
Answers are plain numbers.

## Input Using the record for O=C(O)Cc1ccccc1[N+](=O)[O-] , report its solubility (mole fraction).
## Output 0.0181

###

Conditions: in DMF, 308.15 K
result type: solubility (mole fraction)
One number for each entry.

## Input Using the record for O=C(O)Cc1ccccc1[N+](=O)[O-] , report its solubility (mole fraction).
## Output 0.308

###

Details: in methanol, 293.15 K
result type: solubility (mole fraction)

## Input Using the record for O=C(O)Cc1ccccc1[N+](=O)[O-] , report its solubility (mole fraction).
## Output 0.0521

###

Details: in cyclohexane, 303.15 K
result type: solubility (mole fraction)
Answers are plain numbers.

## Input Using the record for O=C(O)Cc1ccccc1[N+](=O)[O-] , report its solubility (mole fraction).
## Output 2.94e-05

###

Conditions: in isobutanol, 288.15 K
result type: solubility (mole fraction)
Answers are plain numbers.

## Input Using the record for O=C(O)Cc1ccccc1[N+](=O)[O-] , report its solubility (mole fraction).
## Output 0.0106

###

Details: in acetonitrile, 323.15 K
result type: solubility (mole fraction)
One number for each entry.

## Input Using the record for O=C(O)Cc1ccccc1[N+](=O)[O-] , report its solubility (mole fraction).
## Output 0.0515

###

Conditions: in acetonitrile, 328.15 K
result type: solubility (mole fraction)
Answers are plain numbers.

## Input Using the record for O=C(O)Cc1ccccc1[N+](=O)[O-] , report its solubility (mole fraction).
## Output 0.0604

These measurements were taken from BigSolDB 2.1.
